method.description: Human HepG2 cell viability assay in 384 well format
Format: toxicity, cell-based
Design: dose 125 nL, time 70.5 hour; concentration not given beside the values
condition.context: HepG2 cells, read-out: Inhibition
Would you mind telling me the reported cytotoxicity at 70.5 h of each entry?
Give bare numbers, in %.

1) O=C(O)Cc1cn2cc(C(F)(F)F)ccc2n1	-10.8
2) CCNC(=O)CCC(=O)NC(C)Cc1ccccc1Br (configuration not stated)	4.19
3) COc1cccc(CN(C(=O)Nc2nncs2)C2CCC(O)CC2)c1 (configuration not stated)	0.476
4) O=C1CCCCN1Cc1cccc(OC(F)F)c1	4.41
5) COc1ccc(NC(=O)Cn2cc(-c3ccccc3)ncc2=O)cn1	-6.77
6) O=C(N1CC(c2cccnc2)C1)C1(c2ccc(F)cc2)CCOCC1	3.01
7) CN(C(=O)CC1=CCCCC1)C1CCCN(C2Cc3ccccc3C2)C1 (configuration not stated)	-0.808
8) CCS(=O)(=O)c1ncc(CN(C)C)n1Cc1ccccc1	-3.58

// each listed compound needs a value for cytotoxicity at 70.5 h
1. Cc1nccn1-c1cc(CNC(=O)N2CCSCC2)ccn1
2. Cc1cc(C(=O)N(CC(F)(F)F)C2CCOCC2)c(C)o1
3. O=C(CCCn1cnc2ccccc2c1=O)Nc1nc[nH]n1

# output
-3.48
-7.23
22.9

// each listed compound needs a value for cytotoxicity at 70.5 h
1. Cc1ccoc1C(=O)N1CC[C@H]2[C@@H]1CCC(=O)N2c1cccnc1
2. CCn1nc(C)c2ncnc(NCCN3CCOCC3)c21
3. CCOCCNC(=O)C(CCSC)NC(=O)c1ccc2ccccc2n1 (configuration not stated)

# output
-14.8
-3.9
5.06

// each listed compound needs a value for cytotoxicity at 70.5 h
1. O=C(CCN1C(=O)CCC1=O)NCC1(c2c(F)cccc2F)CCCC1
2. COc1ccc(C2CC(=O)Nc3c2nc2n3CCCC2)cc1O (configuration not stated)
3. CCc1cc(C(F)(F)F)c2c(C3CCCN(C(=O)COC)C3)noc2n1 (configuration not stated)
4. O=C(Nc1cccnc1N1CCSCC1)c1cc2c(s1)CCCCC2
5. CCc1nc(NS(=O)(=O)c2cc(C)c(F)cc2Cl)no1
6. COCCN1CCC(CNC(=O)c2ccnc(-n3ccnc3)c2)CC1
7. Cc1ccc(C(CNC(=O)NCc2ccccn2)N2CCOCC2)o1 (configuration not stated)

# output
1. -11.2
2. -15.2
3. -4.44
4. -6.67
5. 25.9
6. -0.309
7. 13.1

The value of cytotoxicity at 70.5 h measured for the compound CCCC1CCCN(C(=O)Nc2ccc(F)c(C(N)=O)c2)CC1 (configuration not stated) turned out to be -1.9

====

method.description: Human HepG2 cell viability assay in 384 well format
Format: toxicity, cell-based
Design: dose 125 nL, time 70.5 hour; concentration not given beside the values
condition.context: HepG2 cells, read-out: Inhibition
Would you mind telling me the reported cytotoxicity at 70.5 h of each entry?
Answers are plain numbers, in %.

Some compounds with recorded cytotoxicity at 70.5 h:
1. Cc1nc(COCC2CN(C(=O)N(C)C)Cc3nccn3C2)cs1 (stereo not given)	-5.94
2. C=C(C)CN1CCC(NC(=O)NCCc2ccccc2OC)CC1	-7.86
3. COc1cccc(C2CN(CCc3ccncc3)CCO2)c1 (stereo not given)	-6.16

// each listed compound needs a value for cytotoxicity at 70.5 h
1. Cc1occc1C(=O)N1CCC2(CCC2NC(=O)c2ccn(C)c2)CC1 (stereo not given)
2. Cc1onc(N)c1S(=O)(=O)N1CCCCC1C (stereo not given)

# output
1: -2.29; 2: -2.67

====

Would you mind telling me the reported cytotoxicity at 70.5 h of each entry?
method.description: Human HepG2 cell viability assay in 384 well format
Assay type: toxicity, cell-based
Design: dose 125 nL, time 70.5 hour; concentration not given beside the values
condition.context: HepG2 cells, read-out: Inhibition

Some compounds with recorded cytotoxicity at 70.5 h:
1) CCC(O)Cn1nc(-c2ccc(C(=O)O)cc2)cc1-c1cccc(F)c1 (stereo unspecified)	20.1%
2) Cc1ccc(NC(=O)C2CCc3ccccc3N2)cc1 (stereo unspecified)	15.2%
3) O=C(NCCN1CCCCCC1=O)c1ccc(=O)[nH]n1	2.56%
4) Cc1ccc(CN2CC[C@@H]3OCCN(Cc4ccncc4)[C@H]3CC2)s1	-6.32%
5) CN(C)C(CNS(=O)(=O)c1ccc(F)cc1F)c1cccn1C (stereo unspecified)	-13.1%
6) Cc1cc(C)n(CC(=O)N2CCC(c3cc4cccnc4[nH]3)CC2)n1	29.7%

// each listed compound needs a value for cytotoxicity at 70.5 h
1. Cc1ncsc1C(=O)NCc1ccnc(N2CCN(C)CC2)c1
2. CC(C)c1nc(CN2CCc3onc(-c4cccc(F)c4)c3C2)no1
3. Cc1cccc(CN2CCCn3c(nnc3CN3CCCC3=O)C2)n1
4. CC(Cn1cccn1)NCCS(=O)(=O)c1ccccc1 (stereo unspecified)

# output
-7.54%
-8.91%
-9.11%
-8.75%

// each listed compound needs a value for cytotoxicity at 70.5 h
1. Cc1ccc(-c2cc(CNC(=O)N3CCSCC3)on2)cc1
2. CCCc1cc(C(=O)N2CCCC2c2cccnc2)[nH]n1 (stereo unspecified)
3. Cc1cc2cc(CNC3CCN(S(C)(=O)=O)CC3)oc2cc1C
4. Cc1nc(CN2CCc3ncnc(-c4cccnc4)c3CC2)cs1
5. OC1(Cn2ccc3ncccc32)CCN(Cc2ccccn2)CC1
6. CNC(=O)c1cnc(/C=C/c2ccc(O)c(OC)c2)s1

# output
-1.58%
-5.97%
-1.78%
42.8%
24.4%
-14.3%

====

Would you mind telling me the reported cytotoxicity at 70.5 h of each entry?
method.description: Human HepG2 cell viability assay in 384 well format
Assay type: toxicity, cell-based
Design: dose 125 nL, time 70.5 hour; concentration not given beside the values
condition.context: HepG2 cells, read-out: Inhibition
Give bare numbers, in %.

1. COc1ccccc1OCc1cc(C(=O)N2CC(O)C2)n[nH]1	-4.48
2. CC(C)CC(=O)NCCCn1cncn1	16.9
3. CC(C(=O)N1CCN(CCOc2ccccc2)CC1)n1cncn1 (configuration not stated)	9.32

// each listed molecule needs a value for cytotoxicity at 70.5 h
1. CCc1csc(CNc2nc3c(s2)c(C)nn3C)n1
2. Cc1ccc(S(=O)(=O)NC(=O)c2cccc(OCC(N)=O)c2)s1
3. CCCC(=O)N1CCCCC1C(=O)Nc1ccc(-c2nnc[nH]2)cc1 (configuration not stated)

# output
10.5
-3.78
-5.35

====

Would you mind telling me the reported cytotoxicity at 70.5 h of each entry?
method.description: Human HepG2 cell viability assay in 384 well format
Assay type: toxicity, cell-based
Set-up: dose 125 nL, time 70.5 hour; concentration not given beside the values
condition.context: HepG2 cells, read-out: Inhibition
Answers are plain numbers, in %.

Some compounds with recorded cytotoxicity at 70.5 h:
1. CN(Cc1nnc2ccccn12)C(=O)CC1CCCCC1	-8.16
2. Cc1cnc(C)c(N2CCN(CCCc3[nH]nc(C)c3C)CC2)n1	1.19
3. COCCNC(=O)C[C@@H]1COC[C@H]2CN(C(=O)C3CCOCC3)C[C@@H]12	1.49
4. CO[C@@H]1CCN(Cc2cccs2)[C@H]1Cc1ccncc1	-0.408

// each listed compound needs a value for cytotoxicity at 70.5 h
1. CCN(C(=O)CN1CCCC1c1ccc(OC)cc1)c1ccccc1C (stereo not drawn)
2. Cc1ccnc(NC(=O)c2ccc(C)o2)c1
3. CC(C)CS(=O)(=O)CC(=O)N(C)Cc1ccc(OC(F)F)cc1
4. CC(=O)Nc1nc(CS(=O)(=O)CCCc2ccccc2)cs1
5. O=C(NCc1nn(-c2ccccc2)c2c1CCC2)C1CC1
6. CC(=O)N(Cc1noc(C2CC2)n1)C1CCN(Cc2nccn2C)C1 (stereo not drawn)

# output
1: -0.0656; 2: 12.1; 3: -3.66; 4: -9.04; 5: -3.11; 6: -5.66

====

Would you mind telling me the reported cytotoxicity at 70.5 h of each entry?
method.description: Human HepG2 cell viability assay in 384 well format
Format: toxicity, cell-based
Set-up: dose 125 nL, time 70.5 hour; concentration not given beside the values
condition.context: HepG2 cells, read-out: Inhibition
Give bare numbers, in %.

Some compounds with recorded cytotoxicity at 70.5 h:
1. Cc1cnn(CCC(=O)N2C[C@H]3CC[C@@H]2CN(CC(=O)N(C)C)C3)c1	-3.83
2. CNC(=O)CS(=O)(=O)C1CCN(S(=O)(=O)c2cccc(C(C)=O)c2)CC1	-6.78
3. CNc1ncccc1C(=O)N1CCc2c(nc(N)[nH]c2=O)C1	-3.13
4. Cc1ccc(-c2ncc(C(=O)NCCNc3ncccn3)s2)c(C)c1	3.03
5. Cc1ccc(O[C@@H]2C[C@H]3CN(c4ncc(F)cn4)CCN3C2)cc1	-0.913

// each listed compound needs a value for cytotoxicity at 70.5 h
1. CCCN(Cc1nccn1C)C(=O)c1cc(C(C)C)on1
2. CCc1n[nH]c(C(=O)N2CCN(c3ccc4ccccc4c3)CC2)c1C
3. Cc1nc(C2CCCN2C(=O)c2ccc(=O)n(C)n2)no1 (configuration not stated)
4. CC(NC(=O)c1ccc(Cl)cc1)c1nnc(SCC(=O)O)n1C (configuration not stated)
5. O=C(NC1CCCC1)c1ccc(COCC(F)(F)F)o1
6. CN(C)C(=O)[C@@H]1C[C@@H]2CCN(C3CCOCC3)C[C@@H]2O1
7. COc1cccc(N2CCN(C(=O)C(C)Oc3ccccc3)CC2=O)c1 (configuration not stated)
8. O=C(NCC1CCC2(CC1)OCCO2)c1ccncc1F

# output
1. 3.45
2. -6.66
3. -5.27
4. 18.7
5. -0.375
6. 12.2
7. 20.9
8. -3.09

// each listed compound needs a value for cytotoxicity at 70.5 h
1. Cc1ccc(CN2CCOC3(CCN(C(=O)C4CCOC4)CC3)C2)cc1 (configuration not stated)
2. Cc1nn(C)c(Cl)c1CNCc1cccnc1N1CCOCC1
3. CCCN(CCc1ccccc1)c1ncnc2oc(C)nc12
4. CC(C)C(C)NC(=O)CCN1C(=O)CCc2cc(F)ccc21 (configuration not stated)
5. COc1ccc(OC)c(NC(=O)NCC(O)c2ccc(F)c(F)c2)c1 (configuration not stated)
6. Cc1cnn(CCC(=O)N2CCOC(c3nc(C(C)(C)C)n[nH]3)C2)c1 (configuration not stated)
7. N#Cc1ccccc1OCCN1CCCCC1Cn1cncn1 (configuration not stated)
8. CCOCC1CN(Cc2cnn(C)c2)Cc2ncn(CC3CC3)c21 (configuration not stated)

# output
[-1.7, 0.768, -2.57, 19.4, 9.62, 15.8, -7.56, 23.1]

FYI, the data here is from ChEMBL document CHEMBL3507680.
